Source: paper PMC8041284

# experimental-system: BTK (Homo sapiens)
# method-notes: biochemical
# experimental-parameters: read-out: BTK inhibition (%), 0.75 uM BTK, […] probe 3l, 15 min preincubation
property-name: inhibition at 10 µM (%)
Only the number, expressed in %, is required.

C=CC(=O)N1CC(N2CCN(C(=O)CNc3cc(C4(C)CC4)c(Cl)cc3O)CC2)C1 ... -9.3
C[C@H](CCC(=O)O)[C@H]1CC[C@H]2[C@@H]3C[C@H](O)[C@@H]4C[C@H](O)CC[C@]4(C)[C@H]3CC[C@]12C ... 3.9
OCCn1cc(-c2cnc3nnn(Cc4ccc5ncccc5c4)c3n2)cn1 ... 0
O=C(O)C(=O)c1cn(Cc2ccccc2)c2ccc(-c3ccc(OC(F)(F)F)cc3)cc12 ... 34

Okay, next one:
Exercise: Need inhibition at 10 µM, item C[C@@H]1COCCN1c1cc(C2([S@](C)(=N)=O)CC2)nc(-c2ccnc3[nH]ccc23)n1
Solution: -4.1

###

# experimental-system: BTK (Homo sapiens, UniProt Q06187)
# Sequence (Q06187 402-655 limits assumed): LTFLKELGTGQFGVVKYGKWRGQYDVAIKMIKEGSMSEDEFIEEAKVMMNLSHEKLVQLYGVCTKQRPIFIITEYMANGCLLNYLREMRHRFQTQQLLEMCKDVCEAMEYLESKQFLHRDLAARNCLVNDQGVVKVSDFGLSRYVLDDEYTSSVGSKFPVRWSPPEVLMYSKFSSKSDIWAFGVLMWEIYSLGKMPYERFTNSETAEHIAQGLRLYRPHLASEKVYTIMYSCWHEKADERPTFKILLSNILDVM
# method-notes: biochemical
# experimental-parameters: read-out: BTK inhibition (%), 0.75 uM BTK, […] probe 3l, 15 min preincubation
property-name: inhibition at 10 µM (%)
Only the number, expressed in %, is required.

Below, 5 compounds whose answers are already recorded.
Cc1cccc(-c2[nH]c(CNc3ccccc3F)nc2-c2ccc3ncnn3c2)n1 [PCM-0215382] ... -1.5
Nc1nc(N)c2nc(-c3ccccc3)c(N)nc2n1 [PCM-0065015] ... -4.7
CCCC[S+]([O-])c1sc2nc(-c3cccs3)cc(-c3ccccc3)c2c1N (centres unmarked) [PCM-0215569] ... 0.8
NC(=O)c1cnc(NCCc2ccc(O)c(Cl)c2)nc1NCc1ccccc1 [PCM-0216041] ... 47.1
Nc1ccc(C(=O)Nc2cccc(-c3nc(N4CCOCC4)c4oc5ncccc5c4n3)c2)cn1 [PCM-0094950] ... -4.8

Exercise: Need inhibition at 10 µM, item CC(=O)OCC(=O)[C@@]12N=C(C)O[C@@H]1C[C@H]1[C@@H]3CCC4=CC(=O)C=C[C@]4(C)[C@H]3[C@@H](O)C[C@@]12C [PCM-0086410]
Solution: -7.6

Exercise: Need inhibition at 10 µM, item COC(=O)C1=CO[C@@H](O[C@@H]2O[C@H](CO)[C@@H](O)[C@H](O)[C@H]2O)[C@@H]2C(CO)=C[C@H](O)[C@H]12 [PCM-0216324]
Solution: -7.7

Exercise: Need inhibition at 10 µM, item C[C@@H]1CC(=O)Nc2cccc(-c3ccc4c(c3)c(-c3cnn(C)c3)nn4C)c2N1 [PCM-0215716]
Solution: 1.5

Exercise: Need inhibition at 10 µM, item CCN(CC)CCOCCOC(=O)C1(c2ccccc2)CCCC1 [PCM-0065027]
Solution: 4.7

Exercise: Need inhibition at 10 µM, item CC(=O)c1ccc(O)cc1O [PCM-0215067]
Solution: 9.3

Exercise: Need inhibition at 10 µM, item O=c1c(-c2ccc(O)cc2)coc2cc(O[C@@H]3O[C@H](CO)[C@@H](O)[C@H](O)[C@H]3O)cc(O)c12 [PCM-0214858]
Solution: -9.3

###

Listing of entries alongside the reported inhibition at 10 µM.
# experimental-system: BTK (Homo sapiens)
# method-notes: biochemical
# experimental-parameters: read-out: BTK inhibition (%), 0.75 uM BTK, […] probe 3l, 15 min preincubation
Only the number, expressed in %, is required.

Exercise: Need inhibition at 10 µM, item CC1Cc2ccccc2N1NC(=O)c1ccc(Cl)c(S(N)(=O)=O)c1 (centres unmarked)
Solution: 6.2

Exercise: Need inhibition at 10 µM, item CCn1c(=O)c(-c2ccc(Cl)cc2Cl)cc2cnc(Nc3ccc(N4CCNCC4)c(F)c3)nc21
Solution: 87.6

Exercise: Need inhibition at 10 µM, item NC[C@H](O)c1ccc(O)c(O)c1
Solution: -5.4

Exercise: Need inhibition at 10 µM, item O=C(O)CCNc1cc(N2CCc3ccccc3CC2)nc(-c2ccccn2)n1
Solution: -3.1

Exercise: Need inhibition at 10 µM, item O=C(O)c1c[nH]c2ccccc12
Solution: 6.2

Exercise: Need inhibition at 10 µM, item COC1(c2sc3c(N4CCOCC4)nc(-c4cnc(N)nc4)nc3c2C)COC1
Solution: 33.8

Exercise: Need inhibition at 10 µM, item CC(=O)[C@H]1CC[C@H]2[C@@H]3CC=C4C[C@@H](O)CC[C@]4(C)[C@H]3CC[C@]12C
Solution: -22.6

Exercise: Need inhibition at 10 µM, item CCOC(=O)C1=C(C)NC(C)=C(C(=O)OC)C1c1cccc(Cl)c1Cl (centres unmarked)
Solution: 17.9

Exercise: Need inhibition at 10 µM, item C=C1CC[C@H](O)C/C1=C/C=C1\CCC[C@]2(C)[C@@H]([C@H](C)/C=C/[C@H](C)C(C)C)CC[C@@H]12
Solution: -23.3

Exercise: Need inhibition at 10 µM, item CC1=CC(=O)[C@H]2C[C@@H]1C2(C)C
Solution: 7.7

Exercise: Need inhibition at 10 µM, item C[C@]1(O)C[C@@H](O)[C@@H]2C=CO[C@@H](O[C@@H]3O[C@H](CO)[C@@H](O)[C@H](O)[C@H]3O)[C@@H]21
Solution: -5.4

###

# experimental-system: BTK (Homo sapiens, UniProt Q06187)
# method-notes: biochemical
# experimental-parameters: read-out: BTK inhibition (%), 0.75 uM BTK, […] probe 3l, 15 min preincubation
We use -10% as the dividing line for inhibition at 10 µM: on or above the line is criterion met, below is criterion not met.

CN(C)CCC=C1c2ccccc2CCc2ccccc21 ... criterion not met

Exercise: Confirm if inhibition at 10 µM reported for the compound CCCCNc1ncc2c(-c3ccc(CN4CCN(C)CC4)cc3)cn(C3CCC(O)CC3)c2n1 (stereo not drawn) is -10% or above.
Solution: criterion met

Exercise: Confirm if inhibition at 10 µM reported for the compound COc1c(O[C@@H]2O[C@H](CO)[C@@H](O)[C@H](O)[C@H]2O)cc2occ(-c3ccc(O)cc3)c(=O)c2c1O is -10% or above.
Solution: criterion met

Exercise: Confirm if inhibition at 10 µM reported for the compound CN1CCC(COc2cnc(-c3cccc(Cn4nc(-c5cccc(C#N)c5)ccc4=O)c3)nc2)CC1 is -10% or above.
Solution: criterion met

Exercise: Confirm if inhibition at 10 µM reported for the compound CCC[C@H](N[C@@H](C)C(=O)N1[C@H](C(=O)O)C[C@@H]2CCCC[C@@H]21)C(=O)OCC is -10% or above.
Solution: criterion met

Exercise: Confirm if inhibition at 10 µM reported for the compound NC(=O)C(c1ccccc1)(c1ccccc1)[C@@H]1CCN(CCc2ccc3c(c2)CCO3)C1 is -10% or above.
Solution: criterion met

Exercise: Confirm if inhibition at 10 µM reported for the compound NC(=O)c1ncn([C@@H]2O[C@H](CO)[C@@H](O)[C@H]2O)c1N is -10% or above.
Solution: criterion met

Exercise: Confirm if inhibition at 10 µM reported for the compound Cc1onc(-c2ccccc2)c1-c1ccc(S(N)(=O)=O)cc1 is -10% or above.
Solution: criterion not met

Exercise: Confirm if inhibition at 10 µM reported for the compound COc1ccc(CNCc2cccc3ccccc23)cc1 is -10% or above.
Solution: criterion not met

###

Listing of entries alongside the reported inhibition at 10 µM.
# experimental-system: BTK (Homo sapiens, UniProt Q06187)
# method-notes: biochemical
# experimental-parameters: read-out: BTK inhibition (%), 0.75 uM BTK, […] probe 3l, 15 min preincubation
Only the number, expressed in %, is required.

Below, 6 compounds whose answers are already recorded.
Nc1ccc(S(=O)(=O)Nc2cncc(Cl)n2)cc1 ... -10.9
C[C@@H]1CC[C@H]2[C@@H](C)C(=O)O[C@@H]3O[C@@]4(C)CC[C@@H]1[C@]32OO4 ... 8.6
CCOc1cc(N)c(Cl)cc1C(=O)NCC1CN(Cc2ccc(F)cc2)CCO1 (stereo not drawn) ... -14
Cc1ccc(S(=O)(=O)Nc2nc3ccccc3nc2Nc2ccc3nsnc3c2)cc1 ... -1.7
CC(C)(O)c1coc(S(=O)(=O)NC(=O)Nc2c3c(cc4c2CCC4)CCC3)c1 ... -0.9
N=c1ccn2c(n1)O[C@H]1[C@H](O)[C@@H](CO)O[C@H]12 ... 6.2

Exercise: Need inhibition at 10 µM, item C/C(O)=C(\C#N)C(=O)Nc1cc(Br)ccc1Br
Solution: -1.4

Exercise: Need inhibition at 10 µM, item CC1(C)CCCC2(C)OC(=O)C=C12 (stereo not drawn)
Solution: 8.6

Exercise: Need inhibition at 10 µM, item COc1cc2oc(=O)ccc2c(OC)c1C[C@@H](O)C(C)(C)O
Solution: -13.1

Exercise: Need inhibition at 10 µM, item C[C@@H]1O[C@@H](OC[C@H]2O[C@@H](Oc3cc(O)c4c(c3)O[C@H](c3ccc(O)cc3)CC4=O)[C@H](O)[C@@H](O)[C@@H]2O)[C@H](O)[C@H](O)[C@H]1O
Solution: 10.8

Exercise: Need inhibition at 10 µM, item O=C(O)c1ccc(O)c2ncccc12
Solution: -4.6

Exercise: Need inhibition at 10 µM, item COC(=O)[C@@H](N)CCCN=C(N)N[N+](=O)[O-]
Solution: 19.6
